# Organism: Rattus norvegicus
# assay.remarks: DrugMatrix - Regimen: Daily Repeat
# Type: toxicity, organism-based, Sprague-Dawley
# Set-up: regimen Daily Repeat, gender Male, age 6-8 weeks
# condition.info: in vivo, po, 0 mg/kg, 72 h, tissue Blood, route oral GAVAGE, dose level Control, time 3 day, vehicle .5 % CMC
reported.endpoint: BASOPHIL (%)
Write down the numeric answer in % and omit the unit.

• C1CCC(C(CC2CCCCN2)C2CCCCC2)CC1 (stereo not drawn) [PERHEXILINE] = 0.17
• CC1CC(OC(=O)C(O)c2ccccc2)CC(C)(C)C1 (stereo not drawn) [CYCLANDELATE] = 0
• CC(C)(C)NC(=O)[C@@H]1C[C@@H]2CCCC[C@@H]2CN1C[C@@H](O)[C@H](Cc1ccccc1)NC(=O)[C@H](CC(N)=O)NC(=O)c1ccc2ccccc2n1 = 0
• OCCN(CCO)c1nc(N2CCCCC2)c2nc(N(CCO)CCO)nc(N3CCCCC3)c2n1 [DIPYRIDAMOLE] = 0
• COc1nc(C)nc(Cl)c1N=C1NCCN1 [MOXONIDINE] = 0

O=C(CCCN1CC=C(n2c(=O)[nH]c3ccccc32)CC1)c1ccc(F)cc1 [DROPERIDOL] has a reported BASOPHIL of 1.52

Form field BASOPHIL, entry Nc1ccn([C@H]2CC[C@@H](CO)O2)c(=O)n1 [ZALCITABINE] : 0.17

The recorded BASOPHIL for entry Cc1nc2n(c(=O)c1CCN1CCC(c3noc4cc(F)ccc34)CC1)CCCC2 [RISPERIDONE] equals 0

CCCN1C[C@H](CSC)C[C@@H]2c3cccc4[nH]cc(c34)C[C@H]21 [PERGOLIDE] has a reported BASOPHIL of 0

So, Cc1ccc2cc3c(ccc4ccccc43)c3c2c1CC3 [3-METHYLCHOLANTHRENE] ? Its BASOPHIL was 0.52

----------
# Species: Rattus norvegicus
# assay.remarks: DrugMatrix - Regimen: Daily Repeat
# Assay type: toxicity, organism-based, Sprague-Dawley
# Parameters: regimen Daily Repeat, gender Male, age 6-8 weeks
# condition.info: in vivo, po, 0 mg/kg, 120 h, tissue Plasma, route oral GAVAGE, dose level Control, time 5 day, vehicle .5 % CMC
reported.endpoint: GLUCOSE (mg/dL)
The figure you give is taken to be in mg/dL; do not add the unit.

* CCCCc1oc2ccccc2c1C(=O)c1cc(I)c(OCCN(CC)CC)c(I)c1 | 177.33
* ClC(Br)Br | 185
* C1CCC(C(CC2CCCCN2)C2CCCCC2)CC1 (stereo not drawn) | 168.17
* COc1nc(C)nc(Cl)c1N=C1NCCN1 | 149.83
* OCCN(CCO)c1nc(N2CCCCC2)c2nc(N(CCO)CCO)nc(N3CCCCC3)c2n1 | 163.33

Record `Nc1ccn([C@H]2CC[C@@H](CO)O2)c(=O)n1` , field GLUCOSE: 139.67

Entry `Cc1nc2n(c(=O)c1CCN1CCC(c3noc4cc(F)ccc34)CC1)CCCC2` — recorded GLUCOSE = 177.33

Lookup result for `O=C(CCCN1CC=C(n2c(=O)[nH]c3ccccc32)CC1)c1ccc(F)cc1` ; measured GLUCOSE: 196.83

// GLUCOSE value for NC1=NC(=O)C(c2ccccc2)O1 (stereo not drawn) : 165.17

The reported value for `ClC(Cl)Br` in terms of GLUCOSE is 185

get_value(item= `Cc1ccc(/N=C/N(C)/C=N/c2ccc(C)cc2C)c(C)c1` , readout=GLUCOSE) returns 141.83

For record `CCn1cc(C(=O)O)c(=O)c2cc(F)c(N3CCNCC3)cc21` the listed GLUCOSE is 141.83

For this molecule ( `CC(C)(C)NC(=O)[C@@H]1C[C@@H]2CCCC[C@@H]2CN1C[C@@H](O)[C@H](Cc1ccccc1)NC(=O)[C@H](CC(N)=O)NC(=O)c1ccc2ccccc2n1` ), measured GLUCOSE is 168.83

Sourced from ChEMBL document CHEMBL3885881
